Values compiled from PubChem BioAssay AID1851.

TEST SYSTEM: Cytochrome P450 1A2 (Homo sapiens) (UniProt P05177)
Sequence (P05177 whole entry, looked up): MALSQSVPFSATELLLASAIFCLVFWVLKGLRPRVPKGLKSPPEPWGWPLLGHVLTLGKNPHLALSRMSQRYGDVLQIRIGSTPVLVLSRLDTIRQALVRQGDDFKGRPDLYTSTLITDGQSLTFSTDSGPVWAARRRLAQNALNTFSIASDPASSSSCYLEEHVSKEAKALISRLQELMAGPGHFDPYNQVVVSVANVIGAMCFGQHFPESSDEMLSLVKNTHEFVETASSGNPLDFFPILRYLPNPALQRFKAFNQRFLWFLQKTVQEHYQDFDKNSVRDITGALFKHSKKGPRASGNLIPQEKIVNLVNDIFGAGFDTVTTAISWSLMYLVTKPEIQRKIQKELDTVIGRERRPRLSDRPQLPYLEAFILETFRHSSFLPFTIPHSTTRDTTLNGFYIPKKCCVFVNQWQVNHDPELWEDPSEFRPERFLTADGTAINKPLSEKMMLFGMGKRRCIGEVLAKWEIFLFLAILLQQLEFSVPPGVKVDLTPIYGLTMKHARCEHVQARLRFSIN
ASSAY NAME: Cytochrome panel assay with activity outcomes
RECORDED CONDITIONS: recombinant CYP, pro-luciferin dealkylation, luminescence, p450-cyp1a2; series mostly up to 57.1 µM
Screen size: about 16,000 compounds; about 5,700 (36%) were called active. About 24% were inconclusive and are not listed. Calls follow the shape of the dose curve; as a rule, active = well fitted curve in the direction sought with a large enough effect; inconclusive = small, poorly fitted or top-dose-only effect, or effect the other way; inactive = no such curve, though single readings can be large or run the other way. Some of the results follow.
Labels: TRUE = active, FALSE = inactive

{"COMPOUND": "CN(C)S(=O)(=O)Oc1ccsc1C(=O)Nc1cccc(Cl)c1", "ASSIGNED CATEGORY": "TRUE"}
{"COMPOUND": "Cc1ccc(Sc2ccc(NC(=O)c3ccc(S(C)(=O)=O)cc3Cl)cc2)cc1", "ASSIGNED CATEGORY": "FALSE"}
{"COMPOUND": "CN(C)S(=O)(=O)Oc1ccsc1C(=O)Nc1ccc(Cl)cc1", "ASSIGNED CATEGORY": "TRUE"}
{"COMPOUND": "COC(=O)c1sccc1-c1ccc(C(=O)Nc2cccc(Cl)c2)o1", "ASSIGNED CATEGORY": "TRUE"}
{"COMPOUND": "O=C(Nc1cnn(Cc2ccc(Cl)cc2Cl)c1)c1cc(-c2cccs2)on1", "ASSIGNED CATEGORY": "TRUE"}
{"COMPOUND": "CN(C)S(=O)(=O)c1ccc(NC(=O)c2cc(F)c(F)cc2Cl)cc1", "ASSIGNED CATEGORY": "FALSE"}
{"COMPOUND": "CC(=O)NNC(=O)CCC(=O)Nc1ccccc1", "ASSIGNED CATEGORY": "FALSE"}
{"COMPOUND": "O=C(CCNS(=O)(=O)c1cccs1)N1CCc2ccccc2C1", "ASSIGNED CATEGORY": "TRUE"}
{"COMPOUND": "FC(F)(F)c1cnc(N2CCC(=NOCc3ccc(Cl)cc3)CC2)c(Cl)c1", "ASSIGNED CATEGORY": "FALSE"}
{"COMPOUND": "O=C(CCNS(=O)(=O)c1cccs1)N1CCCCCC1", "ASSIGNED CATEGORY": "FALSE"}
{"COMPOUND": "CC(C)(C)c1[nH]nc2c1C(c1ccc(OC(=O)c3ccco3)cc1)C(C#N)=C(N)O2 (stereo unspecified)", "ASSIGNED CATEGORY": "TRUE"}

###

TEST SYSTEM: Cytochrome P450 1A2 (Homo sapiens) (UniProt P05177)
ASSAY NAME: Cytochrome panel assay with activity outcomes
RECORDED CONDITIONS: recombinant CYP, pro-luciferin dealkylation, luminescence, p450-cyp1a2; series mostly up to 57.1 µM
Out of some 16,000 compounds screened, about 5,700 (36%) were called active. Not shown: some 24% with an inconclusive outcome. The call rests on the fitted dose curve; in most records, active means well fitted curve in the direction sought with a large enough effect; inconclusive means small, poorly fitted or top-dose-only effect, or effect the other way; inactive means no such curve, though single readings can be large or run the other way. The list shows a part of the results.
Classes used: class 1 (active), class 0 (inactive)

{"COMPOUND": "Cc1cc(N2CCN(c3nc4ccccc4s3)CC2)n2ncnc2n1", "ASSIGNED CATEGORY": "class 1"}
{"COMPOUND": "CN(Cc1ccco1)c1nc(-c2ccc3c(c2)OCO3)nc2ccccc12", "ASSIGNED CATEGORY": "class 1"}
{"COMPOUND": "CCOC(=O)CCCNC(=O)c1cncc(Br)c1", "ASSIGNED CATEGORY": "class 1"}
{"COMPOUND": "O=C(O)/C=C\\c1cnc[nH]1", "ASSIGNED CATEGORY": "class 0"}
{"COMPOUND": "O=C(NCc1cn(-c2ccccc2)nc1-c1ccccc1)c1cc([N+](=O)[O-])cc([N+](=O)[O-])c1", "ASSIGNED CATEGORY": "class 0"}
{"COMPOUND": "CCOc1ccc(NC(=O)N2CCC(C(N)=O)(N3CCCCC3)CC2)cc1", "ASSIGNED CATEGORY": "class 0"}
{"COMPOUND": "Cc1noc(C)c1C(=O)N1CCC[C@@]2(CCN(Cc3nccs3)C2)C1", "ASSIGNED CATEGORY": "class 0"}
{"COMPOUND": "COC(=O)CSc1nc(C)cc(C(F)(F)F)c1C#N", "ASSIGNED CATEGORY": "class 1"}
{"COMPOUND": "C/C(=N/Nc1ccc2ccccc2n1)c1ccccc1O", "ASSIGNED CATEGORY": "class 1"}
{"COMPOUND": "CCOC(=O)CNC(=O)c1cccnc1", "ASSIGNED CATEGORY": "class 0"}
{"COMPOUND": "Cc1ccc(NC(=O)Cn2nc([N+](=O)[O-])c(Br)c2C)cc1C", "ASSIGNED CATEGORY": "class 1"}
{"COMPOUND": "CC1=Nc2ccccc2/C1=C\\c1nc(-c2ccc(C(F)(F)F)cc2)oc1O", "ASSIGNED CATEGORY": "class 1"}
{"COMPOUND": "O=C(c1ccncc1)N1CCC2(CCN(Cc3nccs3)CC2)CC1", "ASSIGNED CATEGORY": "class 0"}
{"COMPOUND": "CN(Cc1ccco1)c1nc(-c2cccnc2)nc2ccccc12", "ASSIGNED CATEGORY": "class 1"}
{"COMPOUND": "O=C(c1cccc(F)c1)N1CCC2(CCN(Cc3ccccc3)CC2)CC1", "ASSIGNED CATEGORY": "class 0"}
{"COMPOUND": "Oc1ccc(Cc2cc(Cl)cc(Cl)c2O)cc1Cl", "ASSIGNED CATEGORY": "class 1"}
{"COMPOUND": "COc1ccccc1CNc1ncncc1-c1ccc2c(c1)OCO2", "ASSIGNED CATEGORY": "class 1"}
{"COMPOUND": "Cc1c(Cl)c([N+](=O)[O-])nn1CC(=O)Nc1c(C)n(C)n(-c2ccccc2)c1=O", "ASSIGNED CATEGORY": "class 0"}
{"COMPOUND": "COC(=O)Cn1cnc(=O)c(C#N)c1/C=C/N(C)C", "ASSIGNED CATEGORY": "class 0"}
{"COMPOUND": "CS(=O)(=O)N1N=C(c2ccc(Br)cc2)CC1c1ccc2c(c1)OCO2 (stereo not drawn)", "ASSIGNED CATEGORY": "class 1"}
{"COMPOUND": "Cc1ccc(OCCNC(=O)c2cncc(Br)c2)cc1C", "ASSIGNED CATEGORY": "class 1"}
{"COMPOUND": "CN(C)c1ccc(-c2nc(N(C)Cc3ccco3)c3ccccc3n2)cc1", "ASSIGNED CATEGORY": "class 1"}
{"COMPOUND": "CN(Cc1ccccc1)c1nc(-c2ccc([N+](=O)[O-])cc2)nc2ccccc12", "ASSIGNED CATEGORY": "class 1"}
